Reported residual metabolism (% of control), 2ME2 MG2 values follow for various compounds
# System: UGT enzymes of human liver microsomes
# Construct: other: liver 062101
# protocol-notes: Inhibition of 2ME2 glucuronidation (MG1, MG2) in human liver microsomes
# Assay type: biochemical
# study-conditions: liver 062101; 2ME2 50 μM; inhibitor 25 μM

Value lookup for residual metabolism (% of control), 2ME2 MG2; key = C#C[C@]1(O)CC[C@H]2[C@@H]3CCc4cc(O)ccc4[C@H]3CC[C@@]21C [17-α-Ethinylestradiol, 17-α-ethinylestradiol, reference compound]
62 (1) %

Value lookup for residual metabolism (% of control), 2ME2 MG2; key = O=C1C[C@@H](c2ccc(O)cc2)Oc2cc(O)cc(O)c21 [Naringenin]
53 (4) %

Value lookup for residual metabolism (% of control), 2ME2 MG2; key = O=C(O[C@@H]1Cc2c(O)cc(O)cc2O[C@H]1c1cc(O)c(O)c(O)c1)c1cc(O)c(O)c(O)c1 [Gallocatechin gallate]
73 (1) %

====

Reported % of control metabolism (SD, n = 3), raloxifene glucuronide G1 values follow for various compounds
# Tested on: UGT enzymes of human liver microsomes
# protocol-notes: Inhibition of raloxifene glucuronidation (G1, G2) in human liver microsomes
# Format: biochemical
# study-conditions: G1; inhibitor 10 μM; raloxifene 50 μM, human liver microsomes 250 μg/ml, 15 min

| compound | measured-value |
| --- | --- |
| O=c1c(O)c(-c2ccc(O)c(O)c2)oc2cc(O)cc(O)c12 | 48 (1) % |

Value lookup for % of control metabolism (SD, n = 3), raloxifene glucuronide G1; key = O=C(O[C@@H]1Cc2c(O)cc(O)cc2O[C@@H]1c1ccc(O)c(O)c1)c1cc(O)c(O)c(O)c1 [Epicatechin gallate]
77 (4) %

Value lookup for % of control metabolism (SD, n = 3), raloxifene glucuronide G1; key = O=C(O[C@@H]1Cc2c(O)cc(O)cc2O[C@@H]1c1cc(O)c(O)c(O)c1)c1cc(O)c(O)c(O)c1 [Epigallocatechin gallate]
85 (3) %

Value lookup for % of control metabolism (SD, n = 3), raloxifene glucuronide G1; key = O=C(O[C@@H]1Cc2c(O)cc(O)cc2O[C@H]1c1cc(O)c(O)c(O)c1)c1cc(O)c(O)c(O)c1 [Gallocatechin gallate]
80 (6) %

Value lookup for % of control metabolism (SD, n = 3), raloxifene glucuronide G1; key = CC/C(=C(/CC)c1ccc(O)cc1)c1ccc(O)cc1 [Diethylstilbestrol, reference compound]
58 (3) %

Value lookup for % of control metabolism (SD, n = 3), raloxifene glucuronide G1; key = CCCCCCCCOC(=O)c1cc(O)c(O)c(O)c1 [Octyl gallate]
68 (3) %

====

# System: UGT enzymes of human liver microsomes
# protocol-notes: Inhibition of raloxifene glucuronidation (G1, G2) in human liver microsomes
# Type: biochemical
# study-conditions: G1; inhibitor 25 μM; raloxifene 50 μM, human liver microsomes 250 μg/ml, 15 min
measured-metric: % of control metabolism (SD, n = 3), raloxifene glucuronide G1

| compound | measured-value |
| --- | --- |
| O=C(O)c1cc(-c2ccc(F)cc2F)ccc1O [Diflunisal, reference compound] | 63 (3) % |

Value lookup for % of control metabolism (SD, n = 3), raloxifene glucuronide G1; key = CC/C(=C(/CC)c1ccc(O)cc1)c1ccc(O)cc1 [Diethylstilbestrol, reference compound]
36 (2) %

Value lookup for % of control metabolism (SD, n = 3), raloxifene glucuronide G1; key = CCCOC(=O)c1cc(O)c(O)c(O)c1 [Propyl gallate]
58 (4) %

Value lookup for % of control metabolism (SD, n = 3), raloxifene glucuronide G1; key = O=C(O[C@@H]1Cc2c(O)cc(O)cc2O[C@H]1c1cc(O)c(O)c(O)c1)c1cc(O)c(O)c(O)c1 [Gallocatechin gallate]
62 (7) %

Value lookup for % of control metabolism (SD, n = 3), raloxifene glucuronide G1; key = O=C(O[C@@H]1Cc2c(O)cc(O)cc2O[C@@H]1c1cc(O)c(O)c(O)c1)c1cc(O)c(O)c(O)c1 [Epigallocatechin gallate]
56 (1) %

====

# system-under-test: UGT enzymes of human liver microsomes (Homo sapiens)
# Construct: residual metabolism (percentage of control), zidovudine glucuronidation; other: liver lot 062101; residual metabolism (percentage of control), zidovudine glucuronidation; residual metabolism (percentage of control)
# Sequence (P16662 whole entry): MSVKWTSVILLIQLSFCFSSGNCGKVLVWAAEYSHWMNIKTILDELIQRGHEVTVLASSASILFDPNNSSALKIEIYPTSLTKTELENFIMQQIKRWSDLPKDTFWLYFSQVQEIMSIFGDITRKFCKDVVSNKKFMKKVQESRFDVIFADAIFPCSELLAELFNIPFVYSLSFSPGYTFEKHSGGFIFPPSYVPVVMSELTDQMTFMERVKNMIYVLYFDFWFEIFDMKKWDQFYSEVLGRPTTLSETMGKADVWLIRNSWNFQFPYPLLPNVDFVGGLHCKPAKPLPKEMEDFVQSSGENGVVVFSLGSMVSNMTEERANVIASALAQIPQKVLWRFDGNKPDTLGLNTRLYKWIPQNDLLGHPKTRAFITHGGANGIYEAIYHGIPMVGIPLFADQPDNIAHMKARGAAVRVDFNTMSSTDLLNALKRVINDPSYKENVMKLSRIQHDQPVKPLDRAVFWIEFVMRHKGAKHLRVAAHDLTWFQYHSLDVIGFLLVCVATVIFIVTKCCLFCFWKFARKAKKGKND
# protocol-notes: Inhibition of zidovudine glucuronidation in human liver microsomes
# Assay type: biochemical
# study-conditions: liver lot 062101; inhibitor 1000 μM
measured-metric: residual metabolism (percentage of control), zidovudine glucuronidation

The examples below pair each entry with its known result.
| molecule | system-under-test | measured-value |
| --- | --- | --- |
| CC(=O)OC1CC(C)CCC1C(C)C (centres unmarked) [Menthyl acetate] | UGT enzymes of human liver microsomes (Homo sapiens) | 20 (1) % |
| O=C(O)c1cc(-c2ccc(F)cc2F)ccc1O [Diflunisal, reference compound] | UGT enzymes of human liver microsomes (Homo sapiens) | 43 (2) % |
| CC(C)=CCC/C(C)=C/CO [Geraniol] | UGT enzymes of human liver microsomes (Homo sapiens) | 9 (1) % |
| CCCCCCCCC(=O)NCc1ccc(O)c(OC)c1 [N-Vanillylnonanamide] | UGT enzymes of human liver microsomes (Homo sapiens) | 40 (1) % |

Value lookup for residual metabolism (percentage of control), zidovudine glucuronidation; key = COc1cc(CNC(=O)CCCC/C=C/C(C)C)ccc1O [Capsaicin]
34 (1) %

====

# system-under-test: UniProtKB P22309
# Sequence (P22309 26-533): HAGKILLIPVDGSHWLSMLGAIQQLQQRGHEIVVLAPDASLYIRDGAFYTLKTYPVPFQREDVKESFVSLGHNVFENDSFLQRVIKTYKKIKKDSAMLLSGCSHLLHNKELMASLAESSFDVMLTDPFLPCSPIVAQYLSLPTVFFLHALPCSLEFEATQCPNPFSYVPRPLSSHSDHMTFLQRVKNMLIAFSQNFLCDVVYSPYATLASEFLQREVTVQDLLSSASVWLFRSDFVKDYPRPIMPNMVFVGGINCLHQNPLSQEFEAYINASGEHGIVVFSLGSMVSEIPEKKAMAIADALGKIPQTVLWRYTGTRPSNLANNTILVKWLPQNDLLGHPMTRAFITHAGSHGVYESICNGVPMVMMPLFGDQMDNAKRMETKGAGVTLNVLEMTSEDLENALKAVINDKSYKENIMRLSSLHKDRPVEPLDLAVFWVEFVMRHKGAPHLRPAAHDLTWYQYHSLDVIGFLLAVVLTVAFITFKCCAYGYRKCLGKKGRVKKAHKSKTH
# protocol-notes: Inhibition of raloxifene glucuronidation by recombinant UGT1A1 Supersomes
# study-conditions: human, Supersomes with recombinant human UGT1A1, pH 7.5, probe raloxifene 50 μM, formation of glucuronide G1, % of control metabolism, raloxifene G1, UGT1A1; inhibitor 25 μM
measured-metric: activity at 15 min, 25 µM (%)
Lab book: enter the figure in %, no units written.

The examples below pair each entry with its known result.
| compound | measured-metric | units-text | measured-value |
| --- | --- | --- | --- |
| CCCCCCCCOC(=O)c1cc(O)c(O)c(O)c1 [Octyl gallate] | activity at 15 min, 25 µM | % | 37 |
| O=C(OC[C@H]1O[C@@H](OC(=O)c2cc(O)c(O)c(OC(=O)c3cc(O)c(O)c(O)c3)c2)[C@H](OC(=O)c2cc(O)c(O)c(OC(=O)c3cc(O)c(O)c(O)c3)c2)[C@@H](OC(=O)c2cc(O)c(O)c(OC(=O)c3cc(O)c(O)c(O)c3)c2)[C@@H]1OC(=O)c1cc(O)c(O)c(OC(=O)c2cc(O)c(O)c(O)c2)c1)c1cc(O)c(O)c(OC(=O)c2cc(O)c(O)c(O)c2)c1 | activity at 15 min, 25 µM | % | 4 |
| CC/C(=C(/CC)c1ccc(O)cc1)c1ccc(O)cc1 [Diethylstilbestrol, reference compound] | activity at 15 min, 25 µM | % | 26 |

We now examine a further compound.
Value lookup for activity at 15 min, 25 µM; key = O=C(O[C@@H]1Cc2c(O)cc(O)cc2O[C@H]1c1cc(O)c(O)c(O)c1)c1cc(O)c(O)c(O)c1 [Gallocatechin gallate]
52

====

# system-under-test: UGT1A3 (Homo sapiens)
# Sequence (P35503 29-534): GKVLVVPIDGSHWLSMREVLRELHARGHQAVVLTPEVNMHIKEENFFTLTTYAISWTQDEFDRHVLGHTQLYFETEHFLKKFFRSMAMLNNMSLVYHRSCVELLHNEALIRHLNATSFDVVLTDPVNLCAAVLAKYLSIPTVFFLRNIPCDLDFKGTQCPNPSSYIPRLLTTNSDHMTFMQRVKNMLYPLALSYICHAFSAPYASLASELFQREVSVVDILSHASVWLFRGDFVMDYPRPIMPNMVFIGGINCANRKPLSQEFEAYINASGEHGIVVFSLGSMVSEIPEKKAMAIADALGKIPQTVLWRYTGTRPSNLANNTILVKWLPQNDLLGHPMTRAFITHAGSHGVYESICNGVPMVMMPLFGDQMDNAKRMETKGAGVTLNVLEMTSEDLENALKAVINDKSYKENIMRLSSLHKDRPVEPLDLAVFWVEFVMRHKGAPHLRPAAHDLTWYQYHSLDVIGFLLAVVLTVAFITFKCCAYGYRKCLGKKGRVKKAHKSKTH
# protocol-notes: Inhibition of raloxifene glucuronidation by recombinant UGT1A3 Supersomes
# study-conditions: human, recombinant UGT1A3 Supersomes, pH 7.5, probe raloxifene 50 μM (formation of glucuronide G1), Inhibition of raloxifene glucuronidation, G1, UGT1A3, G1; inhibitor 10 μM; raloxifene 50 μM, 250 μg/ml Supersomes, 1 mM UDPGA, 15 min
Reported activity at 15 min, 10 µM values follow for various molecules
Lab book: enter the figure in %, no units written.

| molecule | measured-metric | measured-value |
| --- | --- | --- |
| CC/C(=C(/CC)c1ccc(O)cc1)c1ccc(O)cc1 [Diethylstilbestrol, reference compound] | activity at 15 min, 10 µM | 65 |
| O=c1c(O)c(-c2ccc(O)c(O)c2)oc2cc(O)cc(O)c12 | activity at 15 min, 10 µM | 72 |
| CCCCCCCCOC(=O)c1cc(O)c(O)c(O)c1 [Octyl gallate] | activity at 15 min, 10 µM | 61 |

Value lookup for activity at 15 min, 10 µM; key = `O=C(OC[C@H]1O[C@@H](OC(=O)c2cc(O)c(O)c(OC(=O)c3cc(O)c(O)c(O)c3)c2)[C@H](OC(=O)c2cc(O)c(O)c(OC(=O)c3cc(O)c(O)c(O)c3)c2)[C@@H](OC(=O)c2cc(O)c(O)c(OC(=O)c3cc(O)c(O)c(O)c3)c2)[C@@H]1OC(=O)c1cc(O)c(O)c(OC(=O)c2cc(O)c(O)c(O)c2)c1)c1cc(O)c(O)c(OC(=O)c2cc(O)c(O)c(O)c2)c1`
48
